Each entry below carries its reported double positive events.
- method: inhibitors of CD8+ T cell-vesicle binding, pilot screen, LFA-1/ICAM-1 modulator project, MLPCN validation set, flow cytometry (AID 2523)
- stated-conditions: 2C mouse CD8+ T cells, at 7 µM, stronger effect = lower value; measured here: CD8+/vesicle+ event percentage
Answer with a number only, understood to be in %.

Examples with their reported double positive events follow.
[
  {
    "compound": "CN1CCN(C2=Nc3cc(Cl)ccc3Nc3ccccc32)CC1",
    "unit-of-measurement": "%",
    "val": 61.7
  },
  {
    "compound": "CC(C)Cn1c(=S)[nH]c2cc(C(=O)O)ccc2c1=O",
    "unit-of-measurement": "%",
    "val": 61
  },
  {
    "compound": "Cc1[nH]c2ccccc2c1C(=O)CN1CCCC1",
    "unit-of-measurement": "%",
    "val": 61.6
  },
  {
    "compound": "CC(=O)c1c(C)[nH]c(C(=O)OCc2ccccc2)c1C",
    "unit-of-measurement": "%",
    "val": 60.2
  }
]

Assign double positive events to the following record: Cc1ccc(C(CC(=O)NCc2ccco2)c2ccc(OC(C)C)cc2)cc1 (stereo not drawn)
60.4

Assign double positive events to the following record: `CC(C)(C)C(=O)NC(=S)Nc1sc2c(c1C(N)=O)CCC2`
60.2

Assign double positive events to the following record: `C=CCc1ccc(OCC(O)COc2ccc(CC=C)cc2OC)c(OC)c1`
58.6
